Test system: MDCK cells
Assay: Cytotoxicity assay
Type: cell-based
Settings: 50% cytotoxic concentration, 48 hr
Define the label as MET when TC50 is strictly less than 70 µM and as NOT MET in all remaining cases.

[[record]]
molecule = "CC(C)(C)C(=O)OCCCC[C@@H]1[C@H]2CCCN3CCC[C@@H](CN1S(=O)(=O)c1cccc(C(F)(F)F)c1)[C@@H]23"
measured_on = "MDCK cells"
category = "MET"

[[record]]
molecule = "O=C(OCCCC[C@@H]1[C@H]2CCCN3CCC[C@@H](CN1S(=O)(=O)c1ccc(C(F)(F)F)cc1)[C@@H]23)C12CC3CC(CC(Br)(C3)C1)C2"
measured_on = "MDCK cells"
category = "NOT MET"

[[record]]
molecule = "O=C(CC1CC2CCC1C2)OCCCC[C@@H]1[C@H]2CCCN3CCC[C@@H](CN1S(=O)(=O)c1cccc(C(F)(F)F)c1)[C@@H]23 (stereo partly drawn)"
measured_on = "MDCK cells"
category = "NOT MET"

[[record]]
molecule = "O=C(CC12CC3CC(CC(C3)C1)C2)OCCCC[C@@H]1[C@H]2CCCN3CCC[C@@H](CN1S(=O)(=O)c1ccc(C(F)(F)F)cc1)[C@@H]23"
measured_on = "MDCK cells"
category = "MET"

[[record]]
molecule = "CC(C)(C)C(=O)OCCCC[C@@H]1[C@H]2CCCN3CCC[C@@H](CN1S(=O)(=O)c1ccc(C(F)(F)F)cc1)[C@@H]23"
measured_on = "MDCK cells"
category = "NOT MET"

[[record]]
molecule = "O=C(OCCCC[C@@H]1[C@H]2CCCN3CCC[C@@H](CN1S(=O)(=O)c1cccc(C(F)(F)F)c1)[C@@H]23)C12CC3CC(CC(Br)(C3)C1)C2"
measured_on = "MDCK cells"
category = "NOT MET"

[[record]]
molecule = "CCCC[C@@H]1[C@H]2CCCN3CCC[C@@H](CN1S(=O)(=O)c1ccc(C(F)(F)F)cc1)[C@@H]23"
measured_on = "MDCK cells"
category = "NOT MET"

[[record]]
molecule = "O=C(OCCCC[C@@H]1[C@H]2CCCN3CCC[C@@H](CN1S(=O)(=O)c1cccc(C(F)(F)F)c1)[C@@H]23)C12CC3CC(CC(C3)C1)C2"
measured_on = "MDCK cells"
category = "MET"

[[record]]
molecule = "O=C(OCCCC[C@@H]1[C@H]2CCCN3CCC[C@@H](CN1S(=O)(=O)c1ccc(C(F)(F)F)cc1)[C@@H]23)C12CC3CC(CC1C3)C2"
measured_on = "MDCK cells"
category = "MET"


* * *

Where a name gives a salt, the structure may show the parent alone.
Here, each record is paired with measured melting point data.
metric: melting point

[[record]]
molecule = "CC(C)(C)C(=O)OCCCC[C@@H]1[C@H]2CCCN3CCC[C@@H](CN1S(=O)(=O)c1ccc(C(F)(F)F)cc1)[C@@H]23 (as salt: hydrochloride)"
observed_result = "219 to 221 °C"

[[record]]
molecule = "O=C(CC12CC3CC(CC(C3)C1)C2)OCCCC[C@@H]1[C@H]2CCCN3CCC[C@@H](CN1S(=O)(=O)c1cccc(C(F)(F)F)c1)[C@@H]23 (as salt: hydrochloride)"
observed_result = "155 to 156 °C"

[[record]]
molecule = "O=C(OCCCC[C@@H]1[C@H]2CCCN3CCC[C@@H](CN1S(=O)(=O)c1ccc(C(F)(F)F)cc1)[C@@H]23)C12CC3CC(CC1C3)C2 (as salt: hydrochloride)"
observed_result = "186 to 187 °C"

[[record]]
molecule = "O=C(OCCCC[C@@H]1[C@H]2CCCN3CCC[C@@H](CN1S(=O)(=O)c1cccc(C(F)(F)F)c1)[C@@H]23)C12CC3CC(CC(C3)C1)C2 (as salt: hydrochloride)"
observed_result = "190 to 191 °C"

[[record]]
molecule = "O=C(OCCCC[C@@H]1[C@H]2CCCN3CCC[C@@H](CN1S(=O)(=O)c1ccc(C(F)(F)F)cc1)[C@@H]23)C12CC3CC(CC(Br)(C3)C1)C2 (as salt: hydrochloride)"
observed_result = "222 to 223 °C"

[[record]]
molecule = "O=C(CC12CC3CC(CC(C3)C1)C2)OCCCC[C@@H]1[C@H]2CCCN3CCC[C@@H](CN1S(=O)(=O)c1ccc(C(F)(F)F)cc1)[C@@H]23 (as salt: hydrochloride)"
observed_result = "227 °C (dec.)"

[[record]]
molecule = "O=C(OCCCC[C@@H]1[C@H]2CCCN3CCC[C@@H](CN1S(=O)(=O)c1ccc(C(F)(F)F)cc1)[C@@H]23)C12CC3CC(CC(C3)C1)C2 (as salt: hydrochloride)"
observed_result = "231 °C (dec.)"

[[record]]
molecule = "CC(C)(C)C(=O)OCCCC[C@@H]1[C@H]2CCCN3CCC[C@@H](CN1S(=O)(=O)c1cccc(C(F)(F)F)c1)[C@@H]23 (as salt: hydrochloride)"
observed_result = "162 to 164 °C"

[[record]]
molecule = "O=C(CC1CC2CCC1C2)OCCCC[C@@H]1[C@H]2CCCN3CCC[C@@H](CN1S(=O)(=O)c1ccc(C(F)(F)F)cc1)[C@@H]23 (stereo partly shown) (as salt: hydrochloride)"
observed_result = "223 °C (dec.)"

[[record]]
molecule = "O=C(OCCCC[C@@H]1[C@H]2CCCN3CCC[C@@H](CN1S(=O)(=O)c1cccc(C(F)(F)F)c1)[C@@H]23)C12CC3CC(CC1C3)C2 (as salt: hydrochloride)"
observed_result = "207 °C (dec.)"


* * *

Here, each record is paired with measured TC50 data.
Tested on: MDCK cells
Test: Cytotoxicity assay
Format: cell-based
Details: 50% cytotoxic concentration, 48 hr
metric: TC50 (µM)

[[record]]
compound = "O=C(CC1CC2CCC1C2)OCCCC[C@@H]1[C@H]2CCCN3CCC[C@@H](CN1S(=O)(=O)c1ccc(C(F)(F)F)cc1)[C@@H]23 (stereo partly drawn) [Compound 9i]"
measured_on = "MDCK cells"
observed_result = 129.0

[[record]]
compound = "O=C(OCCCC[C@@H]1[C@H]2CCCN3CCC[C@@H](CN1S(=O)(=O)c1ccc(C(F)(F)F)cc1)[C@@H]23)C12CC3CC(CC(C3)C1)C2 [Compound 9a]"
measured_on = "MDCK cells"
observed_result = 19.5

[[record]]
compound = "O=C(CC12CC3CC(CC(C3)C1)C2)OCCCC[C@@H]1[C@H]2CCCN3CCC[C@@H](CN1S(=O)(=O)c1cccc(C(F)(F)F)c1)[C@@H]23 [Compound 9e]"
measured_on = "MDCK cells"
observed_result = 63.4

[[record]]
compound = "O=C(OCCCC[C@@H]1[C@H]2CCCN3CCC[C@@H](CN1S(=O)(=O)c1cccc(C(F)(F)F)c1)[C@@H]23)C12CC3CC(CC1C3)C2 [Compound 9h]"
measured_on = "MDCK cells"
observed_result = 59.7

[[record]]
compound = "CCCC[C@@H]1[C@H]2CCCN3CCC[C@@H](CN1S(=O)(=O)c1cccc(C(F)(F)F)c1)[C@@H]23 [Compound 7b]"
measured_on = "MDCK cells"
observed_result = 86.6

[[record]]
compound = "CCCC[C@@H]1[C@H]2CCCN3CCC[C@@H](CN1S(=O)(=O)c1ccccc1C(F)(F)F)[C@@H]23 [Compound 7c]"
measured_on = "MDCK cells"
observed_result = 86.6

